- TEST_METHOD_NOTES: yeast display, Sf9 membrane polyspecificity reagent, FACS + sequencing; frameworks hold sequencing errors
MEASURE_NAME: polyreactivity (PSR sort gate)

QVQLVDSGGGLVQAGGSLRLSCAASGRTFYYYAMGWSRQEPGKEREFDADISGRGGTTYYADSVKGRFTISRDNAKKTVYLLMNSLKPEDTAVYYCAARSVSTLRYTSRKLRYDYWGQGTQVSVSS : high polyreactivity
QVQLVESGGGLVQAGGSLRLSCAASGRIFYRNAMGWYRQAPGKEREFVAAITFRSGGTYYADSVKGRFTISRDNAKNTVYLQMNSLKPEDTAVYYCATRYLGASRYGYWGQGTQVTVSS : high polyreactivity
QDQLVESGGGLVQAAGSLRLSCAASGSTFLGNALGWYRQARGKERQLVAAISGRGGSTYYADSVKGRFTISRDNAKNTVYVQMNSLKPEDTAVYYCNAVGRRVRTWHDYDYWGKGTQVTVSS : high polyreactivity
